Molecular target: hPIVC243
pEC50: −log10 of the molar value. No end group written: not given here.
Quantity: pEC50

- VALDPIDISIELNKAKSDLEESKEWIRRSNQKLDSI (also: conjugated to cholesterol) [HPIV3_3004 (native) HR2 ligand conjugated to cholesterol (Peptide Conjugate 12)]: < 5.28
